This section presents compounds with their documented normalized growth values.
assay: chemical genetic growth profiling, strain panel (AID 1159580);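 also: tested at 20 µM; growth read once vehicle control cultures reached saturation at 30 °C; 1 = growth at the plate median or of vehicle wells; lower values mean less growth of the strain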; details: S. cerevisiae deletion strains, growth OD, locus YDR001C, strain nth1, stronger effect = lower value
About 2,000 (36%) of roughly 5,500 compounds were called active. Another 18% or so got no clear call; they are omitted. This is one part of the list.

Here is how some compounds turned out for normalized growth.
molecular-string | normalized growth
O=C(O)C1=CC(=C(c2ccc(O)c(C(=O)O)c2)c2ccc(O)c(C(=O)O)c2)C=CC1=O | 0.992 (inactive)
NCCCC(O)(P(=O)(O)O)P(=O)(O)O | 0.983 (inactive)

Query :: Look at this compound and give its reported normalized growth. `O=C(CCCN1CCC(O)(c2ccc(Cl)cc2)CC1)c1ccc(F)cc1`
Result :: 1.04 (inactive)

Query :: For `Nc1nc(/C(=C/CC(=O)O)C(=O)N[C@@H]2C(=O)N3C(C(=O)O)=CCS[C@H]23)cs1` , what is its reported normalized growth?
Result :: 1.02 (inactive)

Query :: Quick one: normalized growth of `O=C(CCCN1CCN(c2ccccn2)CC1)c1ccc(F)cc1` ?
Result :: 0.983 (inactive)
